# TEST: log P determination by HPLC (EEC Directive 79/831 Annex V.A8)
# Format: physicochemical
# PROTOCOL CONDITIONS: log P
MEASURED ATTRIBUTE: chromatographic logP

See these solved cases before continuing.
compound=N#CCNC(=O)c1cc(Cl)cc(Cl)c1NC(=O)c1cc(Cn2nnc(C(F)(C(F)(F)F)C(F)(F)F)n2)nn1-c1ncccc1Cl result=3.59
compound=C#CCNC(=O)c1cc(C#N)cc(C)c1NC(=O)c1cc(Cn2nnc(C(F)(F)F)n2)nn1-c1ncccc1Cl result=2.9

### Prompt Form field: reported chromatographic logP of Cc1cc(Br)cc(C(=O)NC(C)C2CC2)c1NC(=O)c1cc(Cn2nnc(C(F)(F)F)n2)nn1-c1ncccc1Cl (stereo not shown)
### Response 3.89

### Prompt What about Cc1cc(C#N)cc(C(=O)NCc2ccoc2)c1NC(=O)c1cc(Cn2nnc(C(F)(F)F)n2)nn1-c1ncccc1Cl ?
### Response 3.09

### Prompt Repeat with Cc1cc(Cl)cc(C(N)=O)c1NC(=O)c1cc(Cn2nnc(C(F)(F)C(F)(F)F)n2)nn1-c1ncccc1Cl
### Response 3.15

### Prompt Also Cc1cc(C#N)cc(C(=O)NCCC(F)(F)F)c1NC(=O)c1cc(Cn2nnc(C(F)(F)F)n2)nn1-c1ncccc1Cl ?
### Response 3.22

### Prompt Let us now turn to Cc1cc(C)c(NC(=O)c2cc(Cn3nnc(C(F)(F)F)n3)nn2-c2ncccc2Cl)c(C(=O)NC2CC2)c1
### Response 3.04
